# test_system: YAP1 (Yes-associated protein, YAP) (Homo sapiens, UniProt P46937)
# Sequence (P46937 whole entry): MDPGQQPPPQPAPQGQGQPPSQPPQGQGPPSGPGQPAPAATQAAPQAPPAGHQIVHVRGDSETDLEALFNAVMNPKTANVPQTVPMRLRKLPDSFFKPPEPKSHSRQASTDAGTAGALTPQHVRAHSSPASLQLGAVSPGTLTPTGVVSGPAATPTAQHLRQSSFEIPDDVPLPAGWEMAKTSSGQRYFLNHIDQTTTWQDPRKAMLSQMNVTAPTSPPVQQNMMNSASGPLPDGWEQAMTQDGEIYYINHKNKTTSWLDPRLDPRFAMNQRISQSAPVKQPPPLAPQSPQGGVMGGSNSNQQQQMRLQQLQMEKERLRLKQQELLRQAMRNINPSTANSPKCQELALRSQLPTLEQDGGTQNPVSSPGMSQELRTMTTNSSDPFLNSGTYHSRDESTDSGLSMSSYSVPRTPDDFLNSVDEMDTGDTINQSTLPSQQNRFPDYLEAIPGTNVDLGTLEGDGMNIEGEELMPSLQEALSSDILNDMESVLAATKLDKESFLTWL
experimental_endpoint: pKd
Answers are plain numbers, as −log10 of the molar value.

Entry COc1ccc(-c2cc(-c3ccccc3)nc3c2CC(=O)Nc2ccccc2-3)cc1OC : reported pKd = ? 6.13
